Tested on: Tryptase, from human lung
Assay: Enzymatic assay, tryptase
Settings: at 100 μM
Where a SMILES comes first, the peptide text is derived from it.
Quick reference: Tryptase At 100 μM % of the listed items.
Write the value in % as a bare number.

C[C@@H]1NC(=O)[C@H]([C@@H](C)O)NC(=O)[C@@H]2CSSC[C@H](NC(=O)[C@H](CCC(N)=O)NC(=O)[C@@H]3CCCN3C(=O)[C@@H]3CCCN3C(=O)[C@H](CC3CCCCC3)NC(=O)[C@H](CO)NC1=O)C(=O)N[C@@H](Cc1ccccc1)C(=O)N1CCC[C@@H]1C(=O)N1CCC[C@H]1C(=O)N[C@@H](CCc1ccccc1)C(=O)N2 [Ex. 155] (HELM PEPTIDE1{[O=C([C@H](CCc1ccccc1)N[*:1])[*:2]].C.T.A.S.[Cha].P.P.Q.C.F.[dP].P}$PEPTIDE1,PEPTIDE1,2:R3-10:R3|PEPTIDE1,PEPTIDE1,1:R1-13:R2$$$V2.0); 30

Memo: CCCC[C@@H]1NC(=O)[C@@H]2CCCN2C(=O)[C@H]2CCCN2C(=O)[C@H](Cc2ccc(O)cc2)NC(=O)[C@@H]2CSSC[C@H](NC1=O)C(=O)N[C@@H]([C@@H](C)O)C(=O)N[C@@H](C)C(=O)N[C@@H](CO)C(=O)N[C@@H]([C@@H](C)CC)C(=O)N1CCC[C@H]1C(=O)N1CCC[C@H]1C(=O)N[C@@H](CCC(N)=O)C(=O)N2 [Ex. 179] (HELM PEPTIDE1{[Nle].C.T.A.S.I.P.P.Q.C.Y.[dP].P}$PEPTIDE1,PEPTIDE1,2:R3-10:R3|PEPTIDE1,PEPTIDE1,1:R1-13:R2$$$V2.0) , reported Tryptase At 100 μM %: 0
